Sourced from patent US9056843B2

SUBJECT_OF_TEST: Human recombinant full length HDAC1 (Homo sapiens (Human), UniProt Q13547)
Sequence (Q13547 whole entry): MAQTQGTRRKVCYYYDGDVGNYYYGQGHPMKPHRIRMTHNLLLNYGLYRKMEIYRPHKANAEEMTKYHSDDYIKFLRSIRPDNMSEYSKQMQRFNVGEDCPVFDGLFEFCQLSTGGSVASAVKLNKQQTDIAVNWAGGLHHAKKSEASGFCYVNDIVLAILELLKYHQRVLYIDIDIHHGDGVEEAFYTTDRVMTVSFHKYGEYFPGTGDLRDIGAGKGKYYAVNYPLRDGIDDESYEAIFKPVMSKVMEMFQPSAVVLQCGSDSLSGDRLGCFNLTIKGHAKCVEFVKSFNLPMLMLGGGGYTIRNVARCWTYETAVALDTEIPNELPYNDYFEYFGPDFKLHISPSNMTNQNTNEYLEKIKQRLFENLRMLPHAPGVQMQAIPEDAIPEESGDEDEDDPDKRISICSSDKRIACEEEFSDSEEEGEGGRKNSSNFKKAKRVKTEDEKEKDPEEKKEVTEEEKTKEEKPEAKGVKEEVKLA
PROTOCOL_DESCRIPTION: Test 3: HDAC1 assay
STUDY_CONDITIONS: substrate 5 μM acetyl-Gly-Ala-Lys(acetyl)-AMC
We begin with a simple list: items and their reported IC50.
Answer with a number only, understood to be in µM.

Record excerpt, results attached:
{"columns": ["STRUCTURE_SMILES_STRING", "SUBJECT_OF_TEST", "RECORDED_VALUE"],
 "data": [
  ["CCCN(CC)C[C@@H](C)NC(=O)c1ccc(-c2noc(C(F)(F)F)n2)cc1", "Human recombinant full length HDAC1 (Homo sapiens (Human), UniProt Q13547)", 2.4],
  ["C[C@H](CN1CCCCC1)NC(=O)c1ccc(-c2noc(C(F)(F)F)n2)cc1F", "Human recombinant full length HDAC1 (Homo sapiens (Human), UniProt Q13547)", 9.05]
]}

In: Fill in reported IC50 for this entry: CCCN(CCC)C[C@@H](C)NC(=O)c1ccc(-c2noc(C(F)(F)F)n2)cc1F
Out: 4.2

In: Respond only with IC50 recorded for O=C(NCCNc1ccccc1)c1ccc(-c2noc(C(F)(F)F)n2)cc1
Out: 8.8
